# Tested on: K4 kissing-loop RNA reporter
# TEST PROTOCOL: apparent KD of K4 kissing-loop reporter; higher = weaker reporter binding
# PARTICULARS: Eterna round: R107; input ligand: tryptophan 2.4 mM
Assign class by apparent KD of K4 kissing-loop reporter: not lower than 100 nM means Satisfied; lower than 100 nM means Not satisfied.

Study these solved cases before continuing.
* UUUAUAAAGUCGGCCGCCACUGGAUUUAUGUUUGUUUCGUCUGGAUCAAAGUGAUGUUUUGAGUCCAGGACCGGGACAUUUGUUA [whbob_Ex_Tryp_B_w38] | Satisfied
* GGCAGUGAUGUUGCCAGUGGCAGAUUGGAAGGAGCGUGGUGAGACACAGGUAGGUCGCUAAUUGAAGUUGCUGUCACUAAAAUGC [whbob_Ex_Arginine_A_2t131] | Satisfied
* AUUAUAUUGUGAAGGAGCGCGAAUAGCAGUGAUGUUGCUAUCAAACGAUAUAUUAUUUACACGCAGGUAGGUCGCACAAUAUAUA [JR_Nu_SSArginiB_Sub022] | Satisfied
* AAGUGAUGUUGUAGUGAUGUUGUGAUGUUGCAGGAUAUAUAGUGAUGUAGAAGGGUAUGUGCAGUGUUGUUAUUUGAGUGUUGAU [zffdmullin] | Not satisfied
* AAUAAGCGCCGAAGGAGCGGCCUCCGAGUGAUGUUCGGUGAGAUGCCAGUGAUGUUGGCCGGCCAGGUAGGUCGCGGCAAAGCUU [Same State Arginine B GF 29] | Satisfied

# input for lookup
apparent KD of K4 kissing-loop reporter >= 100 nM for AAAAUAAAGCAGUGAUGUUGCAUAUGAGAAGGAGCGCACGAAAGUGCAGGUAGGUCGCUCAGCCAAGUGGACGAAAACGUCCACA [#OpenEnded 9 #K4Early] ? Not satisfied

---

# Tested on: K4 kissing-loop RNA reporter;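 note: bound reporter read as fluorescence of individual clusters on recovered sequencing chips by microscopy, with normalized cluster intensities fitted with a binding model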
# TEST PROTOCOL: apparent KD of K4 kissing-loop reporter; higher = weaker reporter binding
# PARTICULARS: Eterna round: R107; input ligand: FMN 200 uM
Recorded apparent KD of K4 kissing-loop reporter for the following sequences

Recorded apparent KD of K4 kissing-loop reporter, per entry:
- AAUAAAAUCACGGCCGCCACUGAAUAAUUACGAAGUAGUGAUGUUACUUCACAUAUCUUAUUUAACAGGACCGGGUGAAUAUUUA [#16 K4 Tryptophan B Exclusion]: 72.3 nM
- UAUUCUUAUCUUAGUUGAUUUCUAAUUAAACGAGGACCGGUACGGCCGCCACUCGGUUAUGAGUGAUGUUCAUGGAAUUACAUAA [JR_SSTryptoA_Sub020]: 275 nM
- UCUAACAAAUCGGCCGCCACUGAAAUAACCCAGGAGUGAUGUUCCAUCGUCCUAGACUACUCUUCCAGGACCGGGAUCUGUGUUC [theeternabot_exclusion_KL_Trp_B_25]: 298 nM
- AAUGUAUUCCACAUGAGUGAUGUUCAUGUGCGAGGACCGGUACGGCCGCCACUCGCAGUUGUGAUCAGUUCUGAAUACAUUAAUG [KL-XTryp-A3]: 229 nM
- GGAGGGAUCUCGGCCGCCACUCGUAAGAAAUGGGCCUCAGGGAUAUAGUGAUGUUAUGUAAAGAAGAGGACCGGGAGAAAGAAGG [ExTryptoB.Dd]: 222 nM

Please give the measured apparent KD of K4 kissing-loop reporter for this sequence: AAUAUAGUGAUGUUAUAUAAGAAGGAGUUACGAGGACCGGUACGGCCGCCACUCGAAACGAGUGAGGAUUUGGGAGAUUGGGUCC [SSTryptA.K] 300 nM

Look up apparent KD of K4 kissing-loop reporter for this sequence: GUAGGAUGAGGAGGAGGAUGAAUUACUGAAGGAGCGCAUAUAAAUGCAGGUAGGUCGCGGUAAAGAAGUAUAGUGAUGUUAUAUA [SSArgA.G] 421 nM

Request the reported apparent KD of K4 kissing-loop reporter associated with UCCUGCAAUCUGCCACGAAAGUGGGUUGAUACCAGAGUCGAAAGACUCCCUUGGCAGCGAGUGAUGUUCGUUGCAGGUGAAUAAA [MatMod 9 - Jieux - Exclusion - Theophylline A] 118 nM

What apparent KD of K4 kissing-loop reporter value was documented for this sequence, AAAUCUUUCAGAAGGAGCGUGGAUUAUUCAUAUAUAUUUAUUACGAGUGAUGUUCGUAAUUCACAGGUAGGUCGCUGUUCAAUAA [JR_ExcArginiB_Sub005] ? 117 nM

Quick check: apparent KD of K4 kissing-loop reporter of UCUAGUUCUACGGCCGCCACUAUCGAGCACGGGUAUUAGUGAUGUUGAGGUCGUGUCUCCCUCCCUAGGACCGGGUAGAUCUUAG [theeternabot_sameState_KL_Trp_B_4] ? 890 nM

Need apparent KD of K4 kissing-loop reporter of AUUAAUUUCAGAGGAUAUCGUUAUUUUAUUUAAUUUAUUCAUUUAUGCAGUGAUGUUGCUAUUAUUCGAGAAGGCUGAUUUAUAA [JR_ExcFMNB_Sub006] , thanks. 82.1 nM

Need apparent KD of K4 kissing-loop reporter, item UUAGUCUAGAGAAGGAGCGAGUGAUGUUCGCAUGCUAUGAUGAAUUCAUCAUAGUUUAAUCCUCAGGUAGGUCGCUCUAGACAUU [AK7 Exc Arginine B] 427 nM
